measurement-description: TNF-a-driven NF-kB reporter inhibitors, primary screen, selectivity assay for NOD1/NOD2 signaling inhibitor project, cell-based, HEK293T NF-kB-Luc, luminescence (AID 1852)
measurement-parameters: TNF-a induced, 14 h, at 4 µM, active compounds read high
Among all 2,500 compounds or so, about 1,100 (44%) were called active. So high a share suggests a set chosen from earlier hits. This is one part of the list.
Parameter threshold = 90%. Response is T when inhibition meets or exceeds it, else F.

Enquiry: Test whether the compound COc1cccc(N2C(=O)/C(=C/c3ccc(C)o3)C(=O)NC2=S)c1 records inhibition of 90% or higher.
Return: F

Enquiry: Is inhibition at least 90%? Consider NC(=O)c1cn(C2OC(CO)C(O)C2O)c2ncnc(N)c12 (stereo not drawn)
Return: T

Enquiry: Please indicate if the recorded inhibition for COc1ccc(-[n+]2c(-c3ccccc3)cc(-c3ccc(C)cc3)cc2-c2ccccc2)cc1 meets or exceeds 90%.
Return: F

Enquiry: // inclusive: inhibition at least 90%? input: O=Cc1cn(Cc2cccc([N+](=O)[O-])c2)c2ccccc12
Return: F

Enquiry: Quick check, inhibition >= 90%? CC(C)(C)c1ccc(CSc2cnn(C(C)(C)C)c(=O)c2Cl)cc1
Return: F

Enquiry: Kindly determine if inhibition recorded for C=C1C(=O)O[C@@H]2C[C@@H](C)[C@@H]3C=CC(=O)[C@@]3(C)[C@@H](OC(=O)CC(=O)O[C@H]3[C@@H]4C(=C)C(=O)O[C@@H]4C[C@@H](C)[C@@H]4C=CC(=O)[C@]43C)[C@H]12 is above or exactly 90%.
Return: T

Enquiry: I'd appreciate it if you could say whether C=C1C(=O)O[C@@H]2C[C@@H](C)[C@@H]3C=CC(=O)[C@@]3(C)[C@@H](O)[C@H]12 has inhibition at least equal to 90%.
Return: T
